- assay-target: human GAL3 receptor (Homo sapiens)
- Construct: expressed in transfected cells
- Sequence (O60755 whole entry): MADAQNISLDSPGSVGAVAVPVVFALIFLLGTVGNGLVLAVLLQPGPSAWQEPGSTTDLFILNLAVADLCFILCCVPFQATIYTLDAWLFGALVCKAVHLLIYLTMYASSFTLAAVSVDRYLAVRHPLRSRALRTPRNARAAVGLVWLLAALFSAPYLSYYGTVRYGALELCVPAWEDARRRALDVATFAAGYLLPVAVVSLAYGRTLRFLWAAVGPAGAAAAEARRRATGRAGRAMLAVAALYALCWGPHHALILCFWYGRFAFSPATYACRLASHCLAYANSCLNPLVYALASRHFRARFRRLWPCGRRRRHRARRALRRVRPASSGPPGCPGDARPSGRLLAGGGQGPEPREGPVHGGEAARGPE
- measurement-notes: Radioligand binding at cloned human GAL3 receptor
- test-context: pyrimidines, cloned human receptor; read-out: Ki GalR3
Catalogue of compounds with associated Ki
Express it in nM; write the number only.

See these solved cases before continuing.
### Prompt For the compound shown here, CN(C)c1cc(Nc2cccc(OC(F)(F)F)c2)nc(N2CCN(c3ccccn3)CC2)n1 , give the reported Ki.
### Response 58

### Prompt Report Ki for Cc1ccc(Nc2cc(N3CCCCC3)nc(N3CCN(c4cccc(C(F)(F)F)c4)CC3)n2)cc1 please.
### Response 46

### Prompt Could you share which Ki value was measured for Cc1ccc(Nc2cc(N3CCCCC3)nc(N3CCN(c4ncccc4C(F)(F)F)CC3)n2)cc1 ?
### Response 23

### Prompt Please look up its Ki: Cc1ccc(Nc2cc(N(C)C)nc(N(C)C3CCCCC3)n2)cc1
### Response 124

Further cases:
### Prompt GET /values?readout=Ki&item= CN(C)c1cc(Nc2cc(F)c(F)c(F)c2)nc(N2CCN(c3ccccn3)CC2)n1
### Response 213

---

- assay-target: human 5HT1D (Homo sapiens)
- Construct: expressed in transfected cells
- Sequence (P28221 whole entry): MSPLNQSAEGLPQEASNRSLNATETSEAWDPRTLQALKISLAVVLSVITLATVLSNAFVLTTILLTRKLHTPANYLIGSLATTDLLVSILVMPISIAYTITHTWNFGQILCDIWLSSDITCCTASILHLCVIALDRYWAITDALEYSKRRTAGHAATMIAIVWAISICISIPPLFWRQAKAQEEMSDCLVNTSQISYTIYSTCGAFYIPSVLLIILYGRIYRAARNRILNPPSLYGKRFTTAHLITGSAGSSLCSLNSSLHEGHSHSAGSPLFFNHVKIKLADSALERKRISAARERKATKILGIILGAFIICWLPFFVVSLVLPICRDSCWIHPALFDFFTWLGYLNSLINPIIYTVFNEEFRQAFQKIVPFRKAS
- measurement-notes: Radioligand binding, 5HT1D receptor ([3H]-serotonin)
- test-context: Table 7; read-out: h5HT1D Ki
The entries below come with measured Ki values attached.

// known answers, use as guide
### Prompt Please look up its Ki: O=C1C(=Nc2ccc(Br)cc2)c2ccccc2N1c1ccccc1
### Response 9.12 µM

### Prompt Can you look up the measured Ki of O=C1C(=Nc2ccc(Cl)cc2)c2ccccc2N1c1ccccc1 for me?
### Response 14.2 µM

### Prompt Dear colleague, I am looking for the recorded Ki of the following molecule: Cc1ccc(Nc2cc(N3CCCCC3)nc(N(C)CCc3c[nH]c4ccccc34)n2)cc1
### Response 0.102 µM

### Prompt Consider the molecule shown here: O=C1C(=Nc2cccc(Cl)c2)c2ccccc2N1c1ccccc1 What is its recorded Ki?
### Response 10.8 µM

### Prompt Recorded Ki for CN(CCc1c[nH]c2ccccc12)c1nc(Nc2ccc(F)c(F)c2)cc(N2CCCCC2)n1 , please?
### Response 1.27 µM

### Prompt What does the data say about its Ki? Entry: Cc1ccc(Nc2cc(N3CCCCC3)nc(N(C)CCc3ccccc3)n2)cc1
### Response 1.85 µM

Let's switch to this molecule now.
### Prompt Quick one: Ki for O=C1C(=Nc2ccc(C(F)(F)F)cc2)c2ccccc2N1c1ccccc1 ?
### Response 16 µM

---

- assay-target: dopamine D5 receptor (Homo sapiens)
- Construct: expressed in transfected cells
- Sequence (P21918 whole entry): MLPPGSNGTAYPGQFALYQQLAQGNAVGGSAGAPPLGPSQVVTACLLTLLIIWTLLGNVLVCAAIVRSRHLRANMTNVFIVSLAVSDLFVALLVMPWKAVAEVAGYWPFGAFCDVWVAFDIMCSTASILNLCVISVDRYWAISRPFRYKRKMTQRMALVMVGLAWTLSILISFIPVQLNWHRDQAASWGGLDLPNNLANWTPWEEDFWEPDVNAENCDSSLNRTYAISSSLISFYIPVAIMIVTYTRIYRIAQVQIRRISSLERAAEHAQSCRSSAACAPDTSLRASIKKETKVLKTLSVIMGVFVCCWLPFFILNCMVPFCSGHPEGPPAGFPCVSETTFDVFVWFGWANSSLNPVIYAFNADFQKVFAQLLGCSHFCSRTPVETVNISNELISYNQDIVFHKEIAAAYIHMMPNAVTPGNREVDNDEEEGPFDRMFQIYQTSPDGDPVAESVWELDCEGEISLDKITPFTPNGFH
- measurement-notes: Radioligand binding, dopamine D5 receptor
- test-context: Table 10; Ki hD5 divided by Ki hGAL3
recorded-endpoint: selectivity ratio hD5

Record excerpt, results attached:
### Prompt Fill blank: measured selectivity ratio hD5 of the compound Cc1ccc(Nc2cc(N3CCCCC3)nc(N(C)CCc3c[nH]c4ccccc34)n2)cc1 is ____.
### Response 0.7

### Prompt Find the recorded selectivity ratio hD5 belonging to Cc1ccc(Nc2cc(N(C)C)nc(N(C)CCc3c[nH]c4ccccc34)n2)cc1 and report it.
### Response 2

Next:
### Prompt Value lookup for selectivity ratio hD5; key = Cc1ccc(Nc2cc(N3CCCCC3)nc(N(C)CCc3ccccc3)n2)cc1
### Response 2

### Prompt Fill in: selectivity ratio hD5 of O=C1C(=Nc2ccc(Cl)cc2)c2ccccc2N1c1ccccc1 is ___
### Response >100

### Prompt Look up selectivity ratio hD5 for this compound: CN(CCc1c[nH]c2ccccc12)c1nc(Nc2ccc(F)c(F)c2)cc(N2CCCCC2)n1
### Response 1

---

# selectivity ratio hα2C values compiled below
- assay-target: human α2C adrenoceptor (Homo sapiens)
- Construct: expressed in transfected cells
- Sequence (P18825 1-462): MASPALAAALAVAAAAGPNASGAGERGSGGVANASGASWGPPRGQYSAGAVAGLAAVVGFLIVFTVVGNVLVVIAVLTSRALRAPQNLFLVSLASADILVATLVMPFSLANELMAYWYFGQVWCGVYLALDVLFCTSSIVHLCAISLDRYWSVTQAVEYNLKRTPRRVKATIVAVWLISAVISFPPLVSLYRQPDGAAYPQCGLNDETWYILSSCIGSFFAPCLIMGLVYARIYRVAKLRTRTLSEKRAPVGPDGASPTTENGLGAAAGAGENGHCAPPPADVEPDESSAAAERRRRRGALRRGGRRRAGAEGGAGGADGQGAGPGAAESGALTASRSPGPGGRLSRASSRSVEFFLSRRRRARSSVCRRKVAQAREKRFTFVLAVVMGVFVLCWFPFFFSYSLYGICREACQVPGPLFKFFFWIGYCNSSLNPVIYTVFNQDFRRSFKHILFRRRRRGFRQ
- measurement-notes: Radioligand binding, α2C adrenergic receptor
- test-context: Table 10; Ki hα2C divided by Ki hGAL3

Please review the entries below; each comes with its answer.
### Prompt Record request: selectivity ratio hα2C value, item Cc1ccc(Nc2cc(N3CCCCC3)nc(N(C)CCc3c[nH]c4ccccc34)n2)cc1
### Response >30

### Prompt Name the reported selectivity ratio hα2C value associated with the compound CN(CCc1c[nH]c2ccccc12)c1nc(Nc2ccc(F)c(F)c2)cc(N2CCCCC2)n1
### Response >100

### Prompt selectivity ratio hα2C for CN(C)c1cc(Nc2ccc(Cl)c(Cl)c2)nc(Nc2ccccc2)n1 ?
### Response >30

### Prompt Any idea what selectivity ratio hα2C was measured for O=C1C(=Nc2ccc(Br)cc2)c2ccccc2N1c1ccccc1 ?
### Response >100

### Prompt Given the entry O=C1C(=Nc2ccc(Cl)cc2)c2ccccc2N1c1ccccc1 , report its measured selectivity ratio hα2C.
### Response >100

### Prompt What does the record list as selectivity ratio hα2C for Cc1ccc(Nc2cc(N3CCCCC3)nc(N3CCN(c4ncccc4C(F)(F)F)CC3)n2)cc1 ?
### Response >100

### Prompt Can you share its selectivity ratio hα2C? I mean this compound: Cc1ccc(Nc2cc(N(C)C)nc(N(C)CCc3c[nH]c4ccccc34)n2)cc1
### Response 8

### Prompt So what does the record say about selectivity ratio hα2C for O=C1C(=Nc2cccc(Cl)c2)c2ccccc2N1c1ccccc1 ?
### Response >100

---
### Prompt Which selectivity ratio hα2C value is on record for Cc1ccc(Nc2cc(N3CCCCC3)nc(N(C)CCc3ccccc3)n2)cc1 ?
### Response >100

---

- assay-target: human α1A adrenoceptor (Homo sapiens)
- Construct: expressed in transfected cells
- Sequence (P35348 whole entry): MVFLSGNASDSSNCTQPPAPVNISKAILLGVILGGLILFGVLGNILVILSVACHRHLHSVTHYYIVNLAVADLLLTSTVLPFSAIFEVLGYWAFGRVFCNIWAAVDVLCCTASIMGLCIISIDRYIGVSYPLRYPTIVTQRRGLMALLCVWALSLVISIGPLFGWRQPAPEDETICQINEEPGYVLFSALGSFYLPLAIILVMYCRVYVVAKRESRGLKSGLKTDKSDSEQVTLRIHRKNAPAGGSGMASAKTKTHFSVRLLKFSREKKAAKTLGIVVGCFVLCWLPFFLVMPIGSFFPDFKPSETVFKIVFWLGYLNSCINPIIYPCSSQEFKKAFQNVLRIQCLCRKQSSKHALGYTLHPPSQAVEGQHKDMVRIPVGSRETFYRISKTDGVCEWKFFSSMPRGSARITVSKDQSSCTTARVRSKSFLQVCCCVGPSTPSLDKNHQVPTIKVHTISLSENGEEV
- measurement-notes: Radioligand binding, α1A adrenergic receptor
- test-context: Table 9; read-out: hα1A Ki
Ki for assorted compounds
Output spec: scalar in µM, unitless text.

Below are worked cases with known answers.
### Prompt Given O=C1C(=Nc2cccc(Cl)c2)c2ccccc2N1c1ccccc1 , state its recorded Ki.
### Response 12.7

### Prompt Recorded Ki for CN(CCc1c[nH]c2ccccc12)c1nc(Nc2ccc(F)c(F)c2)cc(N2CCCCC2)n1 , please?
### Response 3.39

More entries:
### Prompt I would be grateful if you could share the reported Ki for O=C1C(=Nc2ccc(Cl)cc2)c2ccccc2N1c1ccccc1 .
### Response 16.9

### Prompt Requested read-out: Ki. Entry: O=C1C(=Nc2ccc(C(F)(F)F)cc2)c2ccccc2N1c1ccccc1
### Response 13.1

---

- assay-target: human dopamine D1 (Homo sapiens)
- Construct: purchased BioSignal, Inc. (Montreal, Canada); host or cells: membranes of cells expressing the receptor
- Sequence (P21728 whole entry): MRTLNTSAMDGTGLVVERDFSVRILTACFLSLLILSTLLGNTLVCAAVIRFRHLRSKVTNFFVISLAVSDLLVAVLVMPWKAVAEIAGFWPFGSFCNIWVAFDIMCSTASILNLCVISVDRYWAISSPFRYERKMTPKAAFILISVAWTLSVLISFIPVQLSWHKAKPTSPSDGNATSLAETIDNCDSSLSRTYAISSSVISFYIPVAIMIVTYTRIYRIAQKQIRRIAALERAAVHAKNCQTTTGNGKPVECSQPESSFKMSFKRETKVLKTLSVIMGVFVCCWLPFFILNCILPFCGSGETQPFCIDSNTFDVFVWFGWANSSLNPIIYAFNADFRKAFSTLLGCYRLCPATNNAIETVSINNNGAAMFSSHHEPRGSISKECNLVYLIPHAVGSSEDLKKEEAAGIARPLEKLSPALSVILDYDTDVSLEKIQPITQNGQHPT
- measurement-notes: Radioligand binding, dopamine D1 receptor
- test-context: Table 10; Ki hD1 divided by Ki hGAL3
recorded-endpoint: selectivity ratio hD1
Just the number, please.

Example cases with answers are listed next.
### Prompt Reported selectivity ratio hD1 for Cc1ccc(Nc2cc(N(C)C)nc(N(C)CCc3c[nH]c4ccccc34)n2)cc1 : what is it?
### Response 0.8

### Prompt Can you share its selectivity ratio hD1? I mean this molecule: CN(C)c1cc(Nc2ccc(Cl)c(Cl)c2)nc(Nc2ccccc2)n1
### Response 7

### Prompt Quick one: selectivity ratio hD1 of CN(CCc1c[nH]c2ccccc12)c1nc(Nc2ccc(F)c(F)c2)cc(N2CCCCC2)n1 ?
### Response 5

### Prompt Could you share which selectivity ratio hD1 value was measured for Cc1ccc(Nc2cc(N3CCCCC3)nc(N(C)CCc3c[nH]c4ccccc34)n2)cc1 ?
### Response 0.9

### Prompt Data request, read-out selectivity ratio hD1, for COC[C@@H]1[C@@H](c2ccccc2)OCCN1c1nc(Nc2ccc(C)cc2)cc(N2CCCCC2)n1
### Response 18

Moving on to another molecule below.
### Prompt Suppose we examine the molecule Cc1ccc(Nc2cc(N3CCCCC3)nc(N3CCN(c4ncccc4C(F)(F)F)CC3)n2)cc1 ; what selectivity ratio hD1 value has been reported?
### Response 13
